TEST SYSTEM: Serine/threonine-protein kinase ULK1 (Homo sapiens) (UniProt O75385)
Sequence (O75385 whole entry, looked up): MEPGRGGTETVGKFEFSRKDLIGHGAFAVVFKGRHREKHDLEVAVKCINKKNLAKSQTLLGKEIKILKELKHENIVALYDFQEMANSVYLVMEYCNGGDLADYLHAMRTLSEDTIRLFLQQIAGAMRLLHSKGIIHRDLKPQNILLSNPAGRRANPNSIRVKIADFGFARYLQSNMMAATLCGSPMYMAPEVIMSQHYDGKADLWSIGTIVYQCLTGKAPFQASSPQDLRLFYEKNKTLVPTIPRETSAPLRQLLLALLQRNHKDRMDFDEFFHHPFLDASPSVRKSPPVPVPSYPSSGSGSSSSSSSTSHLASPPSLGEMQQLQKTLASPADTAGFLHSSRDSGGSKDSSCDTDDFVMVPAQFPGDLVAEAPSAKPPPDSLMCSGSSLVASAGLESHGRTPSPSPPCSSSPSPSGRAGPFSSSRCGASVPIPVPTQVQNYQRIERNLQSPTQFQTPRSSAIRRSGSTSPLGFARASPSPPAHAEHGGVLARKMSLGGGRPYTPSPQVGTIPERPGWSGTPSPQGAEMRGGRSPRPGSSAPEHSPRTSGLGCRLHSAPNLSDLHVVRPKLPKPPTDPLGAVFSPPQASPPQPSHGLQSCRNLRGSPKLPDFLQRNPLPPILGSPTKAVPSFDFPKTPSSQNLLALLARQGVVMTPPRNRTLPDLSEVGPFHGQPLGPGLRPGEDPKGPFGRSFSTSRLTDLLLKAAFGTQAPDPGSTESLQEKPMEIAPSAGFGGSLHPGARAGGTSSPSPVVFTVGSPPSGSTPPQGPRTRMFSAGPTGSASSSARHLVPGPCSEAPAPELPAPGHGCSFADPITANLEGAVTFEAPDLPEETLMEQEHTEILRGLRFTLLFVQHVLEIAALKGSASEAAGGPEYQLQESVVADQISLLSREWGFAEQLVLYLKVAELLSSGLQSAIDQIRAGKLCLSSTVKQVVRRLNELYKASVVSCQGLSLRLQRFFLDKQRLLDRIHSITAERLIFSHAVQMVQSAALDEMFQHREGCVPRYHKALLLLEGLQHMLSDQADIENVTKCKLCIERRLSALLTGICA
METHOD: inhibition of human autophagy kinase ULK1 – biochemical, AlphaScreen, primary screen (AID 1259251);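 note: 0% = median of compound wells and 100% = no enzyme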
CONDITIONS USED: AlphaScreen Atg13 phosphorylation by ULK1, luminescence; at 5.96 µM
In all, about 30,000 compounds went through this assay and about 580 (1.9%) were called active. Cut-off read from the data, not from the text of the source: active = inhibition above about 43%; inactive = the rest. Only a selection was taken, and actives are over-represented in it overall.
Labels: T = active, F = inactive

{"columns": ["MOLECULE", "CLASS LABEL"],
 "data": [
  ["COc1ccc(CNC(=O)c2c[nH]c3cc(-c4cn[nH]c4)ccc23)cc1", "F"],
  ["FC(F)(F)c1ccc(Cn2cnc3c(Nc4ccc5c(c4)OCO5)nc(N4CCC(N5CCOCC5)CC4)nc32)cc1", "F"],
  ["CC(=O)Nc1ccc(Nc2cc(Nc3ccccn3)nc(N)n2)cc1", "F"],
  ["O=C(NCCOc1ccccc1)c1ccc2nc(N3CCN(Cc4ccc5c(c4)OCO5)CC3)sc2c1", "F"],
  ["Fc1ccc(CNc2ncc3ccc(-c4cn[nH]c4)cc3c2Cl)cc1", "T"],
  ["CC(C)n1cnc2c(NCc3cccnc3)nc(Nc3ccc(N4CCOCC4)cc3)nc21", "F"],
  ["O=C1Cc2cc(Nc3cc(Nc4ccccn4)c(C(F)(F)F)cn3)ccc2N1", "F"],
  ["CC(C)n1cnc2c(NCc3ccccc3)nc(NC3CCC(O)CC3)nc21 (centres undefined)", "F"],
  ["Fc1cnc(Nc2ccc(N3CCNCC3)cc2)cc1-n1cnc(Nc2ccccc2)n1", "T"],
  ["O=C(NCc1cccc(Cl)c1)Nc1ccc(-c2cn[nH]c2)cc1", "F"],
  ["O=C(Nc1nc2c(s1)CN(Cc1ccccc1)CC2)c1cc(Cl)ccc1Cl", "F"],
  ["CNC(=O)c1cc(F)ccc1Nc1cc(Nc2ccc3nc[nH]c3c2)ncc1C(F)(F)F", "F"],
  ["O=C(NCCO)c1cc(Nc2ccc3[nH]ncc3c2)ccn1", "F"],
  ["CC(C)n1cnc2c(Nc3ccc(N4CCOCC4)cc3)nc(NC3CCC(O)CC3)nc21 (centres undefined)", "T"]
]}

----------
TEST SYSTEM: Serine/threonine-protein kinase ULK1 (Homo sapiens)
METHOD: inhibition of human autophagy kinase ULK1 – biochemical, AlphaScreen, primary screen (AID 1259251);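 note: 0% = median of compound wells and 100% = no enzyme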
CONDITIONS USED: AlphaScreen Atg13 phosphorylation by ULK1, luminescence; at 5.96 µM
Among all 30,000 compounds or so, about 580 (1.9%) were called active. Rule as the data show it: active = inhibition above about 43%; inactive = the rest. The entries come from a sample that favours actives as a whole.
Outcome codes: TRUE = active, FALSE = inactive

{"columns": ["MOLECULE", "CLASS LABEL"],
 "data": [
  ["c1ccc(CN2CCC(Nc3nc(NCCN4CCOCC4)c4ncn(C5CCCCC5)c4n3)CC2)cc1", "FALSE"],
  ["COc1cccc(Nc2nccc(-c3ccc4c(=O)n(C5CC5)c(C)nc4c3)n2)c1", "FALSE"],
  ["CC1(C(=O)Nc2ccc(-c3cn[nH]c3)cc2)COc2ccccc2C1 (stereo not drawn)", "FALSE"],
  ["CNC(=O)c1ccccc1Nc1cc(Nc2ccc(C(=O)N(C)C)cc2)ncc1C(F)(F)F", "TRUE"],
  ["CC(=O)c1cccc(-c2nc3c(NCCCN4CCCC4=O)ncnc3n2C(C)C)c1", "FALSE"],
  ["COc1cc2nc(Nc3nccc4ccccc34)nc(NCc3cccc(C(F)(F)F)c3)c2cc1OC", "FALSE"],
  ["CNC(=O)c1ccccc1Nc1nc(Nc2ccc(-n3cnc(-c4ccc(C)nc4)n3)cc2)ncc1Cl", "FALSE"],
  ["COc1cc2nc(-c3cccc(N)c3)nc(NCCN3CCOCC3)c2cc1OC", "FALSE"],
  ["c1cc2c(cc1CNc1nc(Nc3ccc(N4CCOCC4)cc3)c3ncn(C4CCCCC4)c3n1)OCO2", "TRUE"],
  ["CN1CCN(c2ncn(-c3ccc(Nc4nccc(-c5ccc(NS(C)(=O)=O)cc5)n4)cc3)n2)CC1", "TRUE"],
  ["O=C(NCCCN1CCCC1=O)C1CCN(c2ccc(Nc3ccc4ncccc4c3)nn2)CC1", "FALSE"],
  ["c1ccc(CN2CCC(Nc3nc(-c4ccccc4)nc4c3ncn4C3CCCCC3)CC2)cc1", "FALSE"],
  ["CCN(CC)C(=O)C1CCCN(c2nc3ccc(C(=O)Nc4ccc(NC(C)=O)cc4)cc3s2)C1 (stereo not drawn)", "FALSE"]
]}

----------
TEST SYSTEM: Serine/threonine-protein kinase ULK1 (Homo sapiens) (UniProt O75385)
METHOD: inhibition of human autophagy kinase ULK1 – biochemical, AlphaScreen, primary screen (AID 1259251);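 note: 0% = median of compound wells and 100% = no enzyme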
CONDITIONS USED: AlphaScreen Atg13 phosphorylation by ULK1, luminescence; at 5.96 µM
Hit rate of the full screen: of about 30,000 compounds, about 580 (1.9%) were called active. Cut-off read from the data, not from the text of the source: active = inhibition above about 43%; inactive = the rest. Shown is part of a subset that was picked to be rich in actives.
Outcome codes: active, inactive

{"columns": ["COMPOUND", "CLASS LABEL"],
 "data": [
  ["CC(=O)Nc1ccc(NC(=O)c2ccc(-c3ccc(C(N)=O)cc3)s2)cc1", "inactive"],
  ["COc1cccc(C(=O)Nc2nc3ccc(-c4ccncc4)cc3s2)c1", "inactive"],
  ["COc1cccc(CN(CC2CC2)C(=O)Nc2ccc(-c3cn[nH]c3)cc2OC)c1", "inactive"],
  ["CC(=O)c1cccc(-c2nc3c(Nc4ccc(N5CCOCC5)cc4)ncnc3n2C(C)C)c1", "active"],
  ["CCN(CC)C(=O)C1CCCN(c2cc(Nc3ccccc3)nc(N)n2)C1 (centres undefined)", "inactive"],
  ["CNC(=O)c1ccccc1Nc1nc(Nc2ccc(N3CCOCC3)cc2OC)ncc1Cl", "active"],
  ["CN(C)c1cccc(Nc2nc3ccc(C(=O)Nc4ccc(N5CCOCC5)cc4)cc3s2)c1", "inactive"],
  ["CC(=O)Nc1ccc(Nc2ncnc3c2nc(-c2cccc(N)c2)n3C(C)C)cc1", "inactive"],
  ["c1cncc(Nc2nccc(Nc3ccc(N4CCOCC4)cc3)n2)c1", "inactive"]
]}

----------
TEST SYSTEM: Serine/threonine-protein kinase ULK1 (Homo sapiens) (UniProt O75385)
METHOD: inhibition of human autophagy kinase ULK1 – biochemical, AlphaScreen, primary screen (AID 1259251);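 note: 0% = median of compound wells and 100% = no enzyme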
CONDITIONS USED: AlphaScreen Atg13 phosphorylation by ULK1, luminescence; at 5.96 µM; active compounds read high
The campaign covered roughly 30,000 compounds. About 580 (1.9%) were called active. The entries come from a sample that favours actives as a whole.
MEASUREMENT LABEL: inhibition (%)

{"columns": ["COMPOUND", "TEST SYSTEM", "VALUE"],
 "data": [
  ["O=C1CCCN1CCn1cnc2c(NCc3cccc(C(F)(F)F)c3)nc(Nc3nccc4ccccc34)nc21", "Serine/threonine-protein kinase ULK1 (Homo sapiens) (UniProt O75385)", -5.58],
  ["CC(=O)Nc1ccc(Nc2ncnc3nc(N4CCOCC4)[nH]c23)cc1", "Serine/threonine-protein kinase ULK1 (Homo sapiens) (UniProt O75385)", -7.72],
  ["O=C(NC1CCN(Cc2ccccc2)CC1)c1cccc(-c2cccs2)n1", "Serine/threonine-protein kinase ULK1 (Homo sapiens) (UniProt O75385)", -5.23],
  ["COc1cc(Nc2cc(NC3CC3)ncn2)cc(OC)c1OC", "Serine/threonine-protein kinase ULK1 (Homo sapiens) (UniProt O75385)", -5.2],
  ["CCN(CC)CCOc1ccc(Nc2cc(Nc3ccccc3C(=O)NC)c(C(F)(F)F)cn2)c(OC)c1", "Serine/threonine-protein kinase ULK1 (Homo sapiens) (UniProt O75385)", 91.6],
  ["Cn1nnnc1-c1ccc(Nc2nccc(-c3ccc(N4CCC(O)CC4)c(C#N)c3)n2)cc1", "Serine/threonine-protein kinase ULK1 (Homo sapiens) (UniProt O75385)", 64.2],
  ["CC(NC(=O)C(C(=O)c1ccccc1)n1ccccc1=O)c1ccccc1 (configuration not stated)", "Serine/threonine-protein kinase ULK1 (Homo sapiens) (UniProt O75385)", 1.21],
  ["Cc1ncn(-c2ccc(Nc3nccc(-c4cc(C#N)cc(NC5CCN(C)CC5)c4)n3)cc2)n1", "Serine/threonine-protein kinase ULK1 (Homo sapiens) (UniProt O75385)", 3.12],
  ["CN(C)c1cccc(Nc2nccc(NCc3ccccc3)n2)c1", "Serine/threonine-protein kinase ULK1 (Homo sapiens) (UniProt O75385)", 1.8],
  ["CC(C)n1c(-c2ccc(C(N)=O)cc2)nc2c(NCCN3CCOCC3)ncnc21", "Serine/threonine-protein kinase ULK1 (Homo sapiens) (UniProt O75385)", -4.64],
  ["Cn1c(Nc2nc(NC3CC3)c3ncn(C4CCCCC4)c3n2)nc2ccccc21", "Serine/threonine-protein kinase ULK1 (Homo sapiens) (UniProt O75385)", 36.9],
  ["COc1cc(C(=O)N2CCOCC2)ccc1Nc1cc(NCc2cccc(S(C)(=O)=O)c2)c(C(F)(F)F)cn1", "Serine/threonine-protein kinase ULK1 (Homo sapiens) (UniProt O75385)", -14.6],
  ["O=C(NC1CCN(Cc2ccccc2)CC1)c1ccc(-c2ccccc2)s1", "Serine/threonine-protein kinase ULK1 (Homo sapiens) (UniProt O75385)", -15.1],
  ["CNC(=O)c1ccccc1Nc1cc(NC(=O)C(F)(F)c2ccccc2)ncc1C(F)(F)F", "Serine/threonine-protein kinase ULK1 (Homo sapiens) (UniProt O75385)", 61.2],
  ["CCN(CC)CCNC(=O)c1cc(S(C)(=O)=O)ccc1OC", "Serine/threonine-protein kinase ULK1 (Homo sapiens) (UniProt O75385)", 13],
  ["CNC(=O)c1ccccc1Nc1cc(NC(=O)Cc2ccc(F)c(F)c2)ncc1C(F)(F)F", "Serine/threonine-protein kinase ULK1 (Homo sapiens) (UniProt O75385)", 32.8],
  ["c1ccc(Nc2nccc(Nc3ccc(N4CCOCC4)cc3)n2)cc1", "Serine/threonine-protein kinase ULK1 (Homo sapiens) (UniProt O75385)", 4.53]
]}
